Some molecules, each annotated with its measured IC50.
Tested on: PMA-differentiated THP-1 cells
assay_notes: PMA-differentiated THP-1 cell viability assay
Format: cell-based
condition: Homo sapiens, THP-1, 24 h, read-out: IC50 µM
Entry rule: numbers only, all in µM.

Sample answers from the record:
molecule | experimental_system | value_measured
CC1=C(C(=O)O)C(c2ccccc2C#N)NC(=S)N1 (centres unmarked) | PMA-differentiated THP-1 cells | 118
CC1=C(C(=O)Nc2ccccc2)C(c2ccccc2Cl)NC(=S)N1 (centres unmarked) | PMA-differentiated THP-1 cells | 125

Proceed to the following item.
Reported IC50 for CC1=C(C(=O)O)C(c2ccccc2Cl)NC(=S)N1 (centres unmarked) : what is it?
342

====

System: voltage-dependent Ca2+ channels (isolated rat ileum)
assay_notes: Calcium antagonism: relaxation of K+
condition: K+ (80 mM)-induced contractions of rat ileum; mean ± SD, three independent experiments
Known IC50 of a selection of molecules
Just the number in µg/mL, nothing appended.

Solved entries (count: 6):
molecule | experimental_system | IC50 [µg/mL]
CC1=C(C(=O)Nc2ccc(C)cc2)C(c2ccccc2Cl)NC(=S)N1 (stereo not shown) [Compound 8b] | voltage-dependent Ca2+ channels (isolated rat ileum) | 22.91
CCOC(=O)C1=C(C)NC(=S)NC1c1ccccc1Br (stereo not shown) [Compound 4c] | voltage-dependent Ca2+ channels (isolated rat ileum) | 23.62
CC1=C(C(=O)O)C(c2ccccc2C#N)NC(=S)N1 (stereo not shown) [Compound 5a] | voltage-dependent Ca2+ channels (isolated rat ileum) | 24.37
CCOC(=O)C1=C(C)NC(=S)NC1c1ccccc1C#N (stereo not shown) [Compound 4a] | voltage-dependent Ca2+ channels (isolated rat ileum) | 23.07
CCOC(=O)C1=C(C)NC(=S)NC1c1ccccc1Cl (stereo not shown) [Compound 4b] | voltage-dependent Ca2+ channels (isolated rat ileum) | 24.69
CC1=C(C(=O)Nc2ccccc2)C(c2ccccc2Br)NC(=S)N1 (stereo not shown) [Compound 9a] | voltage-dependent Ca2+ channels (isolated rat ileum) | 21.45

I am curious: what IC50 value has been reported for CC1=C(C(=O)Nc2ccccc2)C(c2ccccc2C#N)NC(=S)N1 (stereo not shown) [Compound 7a] ?
19.65

====

Tested on: PMA-differentiated THP-1 cells
assay_notes: PMA-differentiated THP-1 cell viability assay
Format: cell-based
condition: Homo sapiens, THP-1, 24 h, read-out: IC50 µM
property: IC50
The reply should consist of the numeric value with the unit placed after it.

Field: example entries. Status: answers known.
compound | value_measured
CC1=C(C(=O)Nc2ccccc2)C(c2ccccc2C#N)NC(=S)N1 (centres unmarked) | 123 µM
CCOC(=O)C1=C(C)NC(=S)NC1c1ccccc1C#N (centres unmarked) | 533 µM
CCOC(=O)C1=C(C)NC(=S)NC1c1ccccc1Cl (centres unmarked) | 231 µM

Give its IC50 value. Item: CC1=C(C(=O)Nc2ccccc2)C(c2ccccc2Br)NC(=S)N1 (centres unmarked)
116 µM

# IC50 lookup, item CC1=C(C(=O)Nc2ccc(C)cc2)C(c2ccccc2C#N)NC(=S)N1 (centres unmarked)
61 µM

Data origin, for the record: paper PMC8403975
